- SUBJECT OF TEST: CYP2C9 (Homo sapiens, UniProt P11712)
- Construct: from tissue; host or cells: pooled human liver microsomes
- Sequence (P11712 whole entry): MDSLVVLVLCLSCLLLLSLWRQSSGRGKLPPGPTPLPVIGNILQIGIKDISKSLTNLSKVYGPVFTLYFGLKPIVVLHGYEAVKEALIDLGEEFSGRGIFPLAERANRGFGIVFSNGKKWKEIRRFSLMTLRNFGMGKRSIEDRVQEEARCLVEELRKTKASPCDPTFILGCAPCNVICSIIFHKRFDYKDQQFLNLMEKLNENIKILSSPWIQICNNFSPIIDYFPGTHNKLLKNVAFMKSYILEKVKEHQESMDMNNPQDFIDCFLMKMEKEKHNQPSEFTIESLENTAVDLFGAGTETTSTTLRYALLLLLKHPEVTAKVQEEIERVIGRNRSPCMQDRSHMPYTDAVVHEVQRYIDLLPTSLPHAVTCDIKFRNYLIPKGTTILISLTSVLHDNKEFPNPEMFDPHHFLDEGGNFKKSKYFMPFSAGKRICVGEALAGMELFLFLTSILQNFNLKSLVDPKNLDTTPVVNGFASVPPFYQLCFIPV
- ASSAY PROCEDURE: CYP2C9 inhibition in pooled human liver microsomes (diclofenac 4′-hydroxylation)
- Format: in vitro ADME
- EXPERIMENTAL CONDITIONS: human, pooled human liver microsomes, pH 7.4, probe diclofenac (4′-hydroxylation); read-out: CYP2C9 activity, % of control activity
ASSAY METRIC: activity at 100 μM (%)
Provide the reading as a plain figure in %.

Using the record for COc1ccc2cc1Oc1ccc(cc1)C[C@H]1c3c(cc4c(c3Oc3cc5c(cc3OC)CCN(C)[C@@H]5C2)OCO4)CCN1C [CEP, Cepharanthine] , report its activity at 100 μM.
18.1

###

- SUBJECT OF TEST: CYP2C9 (Homo sapiens)
- Construct: from tissue; host or cells: pooled human liver microsomes
- ASSAY PROCEDURE: CYP2C9 inhibition in pooled human liver microsomes (diclofenac 4′-hydroxylation)
- Format: in vitro ADME
ASSAY METRIC: pKi
Units for pKi: none; it is -log10 of a concentration expressed in mol/L.

Using the record for "COc1ccc2cc1Oc1ccc(cc1)C[C@H]1c3c(cc4c(c3Oc3cc5c(cc3OC)CCN(C)[C@@H]5C2)OCO4)CCN1C" , report its pKi.
4.88

###

- SUBJECT OF TEST: CYP2E1 (Homo sapiens)
- Sequence (P05181 whole entry): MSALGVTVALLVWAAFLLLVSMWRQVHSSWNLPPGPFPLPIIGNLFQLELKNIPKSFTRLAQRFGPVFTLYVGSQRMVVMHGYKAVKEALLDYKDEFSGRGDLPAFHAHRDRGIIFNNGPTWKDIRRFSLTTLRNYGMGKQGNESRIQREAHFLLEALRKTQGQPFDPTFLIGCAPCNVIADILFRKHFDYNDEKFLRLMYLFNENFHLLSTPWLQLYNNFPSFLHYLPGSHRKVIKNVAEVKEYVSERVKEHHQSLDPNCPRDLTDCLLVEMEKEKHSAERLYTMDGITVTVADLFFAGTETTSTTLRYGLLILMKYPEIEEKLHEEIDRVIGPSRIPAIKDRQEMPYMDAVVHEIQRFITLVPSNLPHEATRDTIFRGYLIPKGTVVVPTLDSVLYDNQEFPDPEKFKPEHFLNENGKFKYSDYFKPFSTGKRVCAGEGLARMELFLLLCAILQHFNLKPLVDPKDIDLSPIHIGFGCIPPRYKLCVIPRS
ASSAY METRIC: pKi
Units for pKi: none; it is -log10 of a concentration expressed in mol/L.

Using the record for "COc1ccc2cc1Oc1ccc(cc1)C[C@H]1c3c(cc4c(c3Oc3cc5c(cc3OC)CCN(C)[C@@H]5C2)OCO4)CCN1C" , report its pKi.
4.93

###

- SUBJECT OF TEST: CYP3A4 (Homo sapiens)
- Construct: CYP3A4 catalysed reactions (testosterone 6β-hydroxylation) in pooled HLM; from tissue; host or cells: pooled human liver microsomes
- Sequence (P08684 whole entry): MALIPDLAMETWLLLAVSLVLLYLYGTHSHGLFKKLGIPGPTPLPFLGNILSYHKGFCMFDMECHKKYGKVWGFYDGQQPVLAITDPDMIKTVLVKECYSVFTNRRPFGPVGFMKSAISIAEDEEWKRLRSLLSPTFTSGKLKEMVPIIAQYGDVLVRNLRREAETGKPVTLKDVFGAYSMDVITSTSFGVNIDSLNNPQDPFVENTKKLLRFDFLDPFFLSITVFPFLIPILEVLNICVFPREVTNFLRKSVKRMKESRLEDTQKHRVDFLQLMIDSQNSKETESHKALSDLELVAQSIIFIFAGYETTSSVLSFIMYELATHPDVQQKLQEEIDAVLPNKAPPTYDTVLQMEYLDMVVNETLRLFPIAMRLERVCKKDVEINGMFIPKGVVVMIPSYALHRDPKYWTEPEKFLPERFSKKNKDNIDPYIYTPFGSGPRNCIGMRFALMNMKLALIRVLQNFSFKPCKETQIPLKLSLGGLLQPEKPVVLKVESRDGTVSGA
- ASSAY PROCEDURE: CYP3A4 inhibition in pooled human liver microsomes (testosterone 6β-hydroxylation)
- Format: in vitro ADME
- EXPERIMENTAL CONDITIONS: human, pooled human liver microsomes, pH 7.4, probe testosterone (6β-hydroxylation); read-out: CYP3A4 activity, % of control activity
ASSAY METRIC: activity at 100 μM (%)
Provide the reading as a plain figure in %.

GET /values?readout=activity at 100 μM&system=CYP3A4 (Homo sapiens)&item= COc1ccc2cc1Oc1ccc(cc1)C[C@H]1c3c(cc4c(c3Oc3cc5c(cc3OC)CCN(C)[C@@H]5C2)OCO4)CCN1C [CEP, Cepharanthine]
12.6

###

- SUBJECT OF TEST: CYP2E1 (Homo sapiens)
- Construct: CYP2E1 catalysed reactions (chlorzoxazone 6-hydroxylation) in pooled HLM; from tissue; host or cells: pooled human liver microsomes
- ASSAY PROCEDURE: CYP2E1 inhibition in pooled human liver microsomes (chlorzoxazone 6-hydroxylation)
- Format: in vitro ADME
- EXPERIMENTAL CONDITIONS: human, pooled human liver microsomes, pH 7.4, probe chlorzoxazone (6-hydroxylation); read-out: CYP2E1 activity, % of control activity
ASSAY METRIC: activity at 100 μM (%)
Provide the reading as a plain figure in %.

Using the record for "COc1ccc2cc1Oc1ccc(cc1)C[C@H]1c3c(cc4c(c3Oc3cc5c(cc3OC)CCN(C)[C@@H]5C2)OCO4)CCN1C" , report its activity at 100 μM.
23.6
